# TARGET OR TEST SYSTEM: Cathepsin B (Homo sapiens) (UniProt P07858)
# TEST PROTOCOL: Inhibition of human liver cathepsin B using Cbz-Arg-Arg-AMC as fluorogenic substrate at 130 uM measured every 20 seconds for 10 mins by fluorescence based assay
Activity calls are given as the source filed them. The calls are words filed in the database; no cut-off is given here.
MEASURE NAME: inhibition

Guide cases for inhibition, answers given:
{"COMPOUND": "CC(C)C[C@H](NC(=O)[C@H](CCc1ccccc1)NC(=O)CN1CCOCC1)C(=O)N[C@@H](Cc1ccccc1)C(=O)N[C@@H](CC(C)C)C(=O)[C@@]1(C)CO1", "TARGET OR TEST SYSTEM": "Cathepsin B (Homo sapiens) (UniProt P07858)", "MEASURE NAME": "inhibition", "VALUE REPORTED": "inactive"}
{"COMPOUND": "CC(=O)N[C@H]1Cc2ccc([N+](=O)[O-])c(c2)Oc2ccc(cc2)C[C@@H](C(=O)N[C@@H](CC(C)C)C(=O)[C@@]2(C)CO2)NC(=O)[C@H](CC(C)C)NC1=O", "TARGET OR TEST SYSTEM": "Cathepsin B (Homo sapiens) (UniProt P07858)", "MEASURE NAME": "inhibition", "VALUE REPORTED": "inactive"}
{"COMPOUND": "CC(=O)N[C@@H](Cc1ccc([N+](=O)[O-])c(F)c1)C(=O)N[C@@H](CC(C)C)C(=O)N[C@@H](CC1C(=O)Nc2ccc(O)cc21)C(=O)N[C@@H](CC(C)C)C(=O)[C@@]1(C)CO1 (stereo partly specified)", "TARGET OR TEST SYSTEM": "Cathepsin B (Homo sapiens) (UniProt P07858)", "MEASURE NAME": "inhibition", "VALUE REPORTED": "inactive"}
{"COMPOUND": "CC(=O)N[C@H]1Cc2ccc([N+](=O)[O-])c(c2)Oc2ccc3c(c2)C(C[C@@H](C(=O)N[C@@H](CC(C)C)C(=O)[C@@]2(C)CO2)NC(=O)[C@H](CC(C)C)NC1=O)C(=O)N3 (stereo partly specified)", "TARGET OR TEST SYSTEM": "Cathepsin B (Homo sapiens) (UniProt P07858)", "MEASURE NAME": "inhibition", "VALUE REPORTED": "inactive"}
{"COMPOUND": "CC(=O)N[C@H]1Cc2ccc([N+](=O)[O-])c(c2)Oc2ccc3c(c2)C(C[C@@H](C(=O)N[C@@H](CC(C)C)C(N)=O)NC(=O)[C@H](CC(C)C)NC1=O)C(=O)N3 (stereo partly specified)", "TARGET OR TEST SYSTEM": "Cathepsin B (Homo sapiens) (UniProt P07858)", "MEASURE NAME": "inhibition", "VALUE REPORTED": "inactive"}

# evaluate next
CC(=O)N[C@H]1Cc2ccc([N+](=O)[O-])c(c2)Oc2ccc(cc2)CC[C@@H](C(=O)N[C@@H](CC(C)C)C(=O)[C@@]2(C)CO2)NC(=O)[C@H](CC(C)C)NC1=O yielded inhibition of inactive

---

# TARGET OR TEST SYSTEM: 20S proteasome (Homo sapiens) (UniProt P49721+P20618+P28074+P28062+P28065+P28072+P25786+P25787+P25788+P25789+P28066+P60900+O14818+Q8TAA3+P40306+A5LHX3+P49720+P28070+Q99436)
# TEST PROTOCOL: Inhibition of human 20S proteasome trypsin-like activity using Ac-RLR-AMC as a fluorogenic substrate at 130 uM measured every 20 seconds for 10 mins by fluorescence based assay
# Type: protein-complex assay
Active and inactive are the calls of the source. The calls are words filed in the database; no cut-off is given here.

{"COMPOUND": "CC(C)C[C@H](NC(=O)[C@H](CCc1ccccc1)NC(=O)CN1CCOCC1)C(=O)N[C@@H](Cc1ccccc1)C(=O)N[C@@H](CC(C)C)C(=O)[C@@]1(C)CO1", "inhibition": "inactive"}
{"COMPOUND": "CC(=O)N[C@H]1Cc2ccc([N+](=O)[O-])c(c2)Oc2ccc3c(c2)C(C[C@@H](C(=O)N[C@@H](CC(C)C)C(=O)[C@@]2(C)CO2)NC(=O)[C@H](CC(C)C)NC1=O)C(=O)N3 (stereo partly drawn)", "inhibition": "inactive"}
{"COMPOUND": "CC(=O)N[C@@H](Cc1ccc([N+](=O)[O-])c(F)c1)C(=O)N[C@@H](CC(C)C)C(=O)N[C@@H](CC1C(=O)Nc2ccc(O)cc21)C(=O)N[C@@H](CC(C)C)C(=O)[C@@]1(C)CO1 (stereo partly drawn)", "inhibition": "inactive"}
